# Tested on: OVCAR-5
# experimental protocol: NCI tumour cell line growth inhibition, 48 h
Calls of active or inactive are those of the source. No stated cut-off is given here; in the data, active = GI50 up to about 1.1 µM and inactive = higher.
# output must be one of active, inactive

Here are 6 molecules together with their reported answers.
molecule: C=C(N=[N+]=[N-])c1cn(C2CC(O)C(CO)O2)c(=O)[nH]c1=O (stereo not drawn)
assigned class: inactive
//
molecule: O=C(O)[C@@H](NS(=O)(=O)c1ccc(F)cc1)c1ccccc1
assigned class: inactive
//
molecule: CCC(C)CN1C(=O)NC(Cc2ccccc2)C1=O (stereo not drawn)
assigned class: inactive
//
molecule: CCCCC(/C=C\COC1CCCCO1)=C/C(=O)OCC (stereo not drawn)
assigned class: inactive
//
molecule: COc1ccc(NCc2cnc3nc(N)nc(N)c3c2C)cc1
assigned class: inactive
//
molecule: C=CN1C(=O)OC(c2ccccc2)C1c1ccccc1 (stereo not drawn)
assigned class: inactive

[Q] How did this test come out for CC(C)=CC(=O)Cc1nc2ccccc2[nH]c1=O ?
[A] inactive

[Q] Field entry: Cc1cc2c(cn1)C(=O)OCC2
[A] inactive

[Q] Field entry: Cc1ccc(Cc2nnc(S)[nH]2)cc1
[A] inactive

[Q] Field entry: O=c1c2cc([N+](=O)[O-])ccc2n2n1CCCCC2
[A] inactive

[Q] Field entry: COc1ccc(/C=C/c2cc(OC)c(OCc3ccccc3)c(OC)c2)cc1
[A] inactive

[Q] Field entry: COC(=O)c1nn(C(=N)c2ccc(Cl)cc2)c2c1CCCCC2
[A] inactive

[Q] Field entry: COc1ccc(CCNC(=O)CCc2ccccc2CO)cc1OC
[A] inactive

[Q] Field entry: COc1nc2ncc([C@@H](OC(C)=O)[C@@H](COC(C)=O)OC(C)=O)nc2c(=O)n1C
[A] inactive

[Q] Field entry: Nc1nc(=O)[nH]c2c1cnn2C1CCCCO1 (stereo not drawn)
[A] inactive

[Q] Field entry: Cn1c2c(c3ccccc31)CCN=C2C1CCCOC1=O (stereo not drawn)
[A] inactive

[Q] Field entry: COC(=O)NNC(=O)OC.COC(=O)Nc1ccccc1NC(=O)OC.COC(=O)Oc1nn(C(=O)OC)c(=O)c2ccccc12
[A] inactive

[Q] Field entry: S=C(N/N=C/c1ccccn1)N1CC2CCC(CC2)C1
[A] active

[Q] Field entry: CC(C)(C)C(=O)CP(=O)(O)O
[A] inactive

[Q] Field entry: COc1ccc2c(c1)[n+]([O-])c(/C(C)=N/NC(=O)CC#N)c[n+]2[O-]
[A] inactive

[Q] Field entry: COC(=O)/C=C1\SC2(O\C1=N/c1ccccc1)C1CC3CC(C1)CC2C3 (stereo not drawn)
[A] inactive

[Q] Field entry: NC(=O)C1=NNc2ccccc2C(=O)N1c1ccccc1
[A] inactive

[Q] Field entry: CC(NC(=O)C(NC(=O)C(NC(=O)C(F)(F)F)C(C)C)C(C)C)C(=O)Oc1c(Cl)c(Cl)c(Cl)c(Cl)c1Cl (stereo not drawn)
[A] inactive

---

# Tested on: HOP-62
# experimental protocol: NCI tumour cell line growth inhibition, 48 h
Active and inactive are the calls of the source. Cut-off read from the data, not from the text of the source: active = GI50 up to about 1.1 µM and inactive = higher.
# output must be one of active, inactive

Here are 5 compounds together with their reported answers.
compound: CCOC(=O)C(=O)NCCCN1CCOCC1
assigned class: inactive

compound: COc1ccc(/C=C/c2cc(OC)c(OCc3ccccc3)c(OC)c2)cc1
assigned class: inactive

compound: CC[C@@]1(OP(=O)(O)O)C(=O)OCc2c1cc1n(c2=O)Cc2cc3ccccc3nc2-1
assigned class: active

compound: CCCCC(/C=C\COC1CCCCO1)=C/C(=O)OCC (stereo unspecified)
assigned class: inactive

compound: CC1=[N+]([O-])C(C)(C)N(N=O)C1(C)C
assigned class: inactive

[Q] How did this test come out for NC(=O)c1nc[nH]c1/N=N/SCC(N)C(=O)O (stereo unspecified) ?
[A] inactive

[Q] Field entry: CC(C)[Si](OC1=CCC[C@H]2NC(=O)[C@@H](Cc3ccccc3)[C@@]12C)(C(C)C)C(C)C
[A] inactive

---

# Tested on: U-251
# experimental protocol: NCI tumour cell line growth inhibition, 48 h
Calls of active or inactive are those of the source. No stated cut-off is given here; in the data, active = GI50 up to about 1.1 µM and inactive = higher.
// GI50 lookup, one value per entry

compound: CCC(C)CN1C(=O)NC(Cc2ccccc2)C1=O (stereo unspecified)
GI50: > 100 µM (inactive)

compound: C#CCC1(C(=O)OCC)C(=O)c2ccccc2N(C)C1=O (stereo unspecified)
GI50: > 100 µM (inactive)

[Q] # lookup: GI50 of CNC(=O)CCNC(=O)CCC(=O)N(C)C
[A] > 100 µM (inactive)

[Q] Field entry: S=C(N/N=C/c1ccccn1)N1CC2CCC(CC2)C1
[A] < 0.01 µM (active)

[Q] Field entry: COc1ccc(N2C(N)=C(C#N)C(C#N)(C#N)C2c2cccc([N+](=O)[O-])c2)cc1 (stereo unspecified)
[A] 17.4 µM (inactive)

[Q] Field entry: c1ccc(C(c2ccccc2)c2ccccn2)cc1
[A] > 100 µM (inactive)

---

# Test system: SN12C
# experimental protocol: NCI tumour cell line growth inhibition, 48 h
Active and inactive are the calls of the source. No stated cut-off is given here; in the data, active = GI50 up to about 1.1 µM and inactive = higher.
# output must be one of active, inactive

Here are 5 molecules together with their reported answers.
molecule: N#Cc1c(-c2ccccc2)nc(-c2ccccc2)sc1=S
assigned class: inactive

molecule: Fc1cc(F)c(F)c(S)c1F
assigned class: inactive

molecule: CC(C)(C)OC(=O)N/C(C=O)=C\C1CCCCC1
assigned class: inactive

molecule: NS(=O)(=O)c1ccc(CNc2nc(-c3cccs3)nc3ccc(I)cc23)cc1
assigned class: inactive

molecule: CCc1nc(N)nc(N)c1-c1ccc(Cl)c([N+]#N)c1
assigned class: inactive

[Q] How did this test come out for O=C(c1c(F)c(F)c(F)c(F)c1F)n1c(O)nc2ccccc21 ?
[A] inactive

[Q] Field entry: Cc1nn(C(=O)c2ccc(Cl)cc2)c2c1C(c1ccc([N+](=O)[O-])cc1)SC(=N)N2 (stereo not given)
[A] inactive

[Q] Field entry: Nc1ccc2c(c1)C(=O)c1ccccc1-2
[A] inactive

[Q] Field entry: O=c1cnn(C/C=C/CO)c(=O)[nH]1
[A] inactive

[Q] Field entry: O=C(CCCn1ccnc1[N+](=O)[O-])NCCn1cnc([N+](=O)[O-])n1
[A] inactive

[Q] Field entry: CC(=O)c1ccc2c3c1[C@H]1O[C@H]1c1cccc(c1-3)[C@@H]1O[C@H]21
[A] inactive

[Q] Field entry: O=C(NC1CCCCC1NC(c1ccccc1)(c1ccccc1)c1ccccc1)C(=O)NC1CCCCC1NC(c1ccccc1)(c1ccccc1)c1ccccc1 (stereo not given)
[A] inactive

[Q] Field entry: Cc1cc(Cl)ccc1NC(=O)C1C(=O)N(c2ccc(Cl)cc2C)C(=O)/C1=N\N (stereo not given)
[A] inactive

[Q] Field entry: Cc1cc2c(cc1C)[n+]([O-])c(C(=O)/C=C/c1ccc3c(c1)OCO3)c(C)[n+]2[O-]
[A] inactive

[Q] Field entry: CC(=O)OCCN(C1=NCCN1)/[N+](C=c1ccc(=C=[N-])cc1)=C/c1ccc(C#N)cc1
[A] inactive

[Q] Field entry: O=c1[nH]/c(=C/c2cccs2)c(=O)[nH]/c1=C/c1ccc(OCc2ccccc2)cn1
[A] active

[Q] Field entry: C/C(CCn1[nH]c(=O)ccc1=O)=N\NC(=O)C(=O)NN
[A] inactive

---

# Test system: Malme-3M
# experimental protocol: NCI tumour cell line growth inhibition, 48 h
The source made the active and inactive calls. Cut-off read from the data, not from the text of the source: active = GI50 up to about 1.1 µM and inactive = higher.
# output must be one of yes for active, no for inactive

smiles record: OCCNCCOc1ccc(/C(=C(/Cl)c2ccccc2)c2ccccc2)cc1
assigned class: yes

smiles record: CN(C)C(=S)/N=c1\ss/c(=N\S(=O)(=O)c2ccccc2)n1N(C)C
assigned class: no

smiles record: NNC1=N/C(=C\c2ccccc2O)C(=O)N1
assigned class: no

[Q] How did this test come out for CC1=[N+]([O-])C(C)(C)N(N=O)C1(C)C ?
[A] no

[Q] Field entry: COc1cc(/C=C2\Cc3cc(OC)c(OC)cc3C2=O)cc(OC)c1
[A] no

[Q] Field entry: CNC(=O)CCNC(=O)CCC(=O)N(C)C
[A] no

---

# Test system: OVCAR-4
# experimental protocol: NCI tumour cell line growth inhibition, 48 h
Calls of active or inactive are those of the source. Cut-off read from the data, not from the text of the source: active = GI50 up to about 1.1 µM and inactive = higher.
metric name: GI50

The examples below pair each entry with its known result.
smiles record: O=C(O)Cc1ccc(/N=N/c2c(O)c(C(=O)O)cc3ccccc23)cc1
target or test system: OVCAR-4
GI50: > 100 µM (inactive)
//
smiles record: CC(C)[Si](OC1=CCC[C@H]2NC(=O)[C@@H](Cc3ccccc3)[C@@]12C)(C(C)C)C(C)C
target or test system: OVCAR-4
GI50: 5.25 µM (inactive)

[Q] # lookup: GI50 of Nc1cnc2c(c1)c(=O)nc1n2CCS1
[A] > 100 µM (inactive)

[Q] Field entry: O=C1C([P+](c2ccccc2)(c2ccccc2)c2ccccc2)=C([O-])C(=Cc2ccc(Cl)c(Cl)c2)C([O-])=C1[P+](c1ccccc1)(c1ccccc1)c1ccccc1
[A] 2.97 µM (inactive)

[Q] Field entry: COC(=O)c1nn(C(=N)c2ccc(Cl)cc2)c2c1CCCCC2
[A] > 100 µM (inactive)
